# test-name: Components of the Cytosolic LPS Sensing Pathway: Gene Identification via Genome-wide siRNA Screen;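 note: robust z of the log signal after scaling to non-targeting control siRNA wells of the plate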
# condition-set: RAW264.7 macrophages, IL-1a HTRF, actives lie on both sides, screened at 100 nM (by protocol), cells primed 5 h with Pam3CSK4 first
# Experimental: Non-canonical inflammasome activation by cytosolic LPS is a critical component of the host response to Gram-negative bacterial infection, however we lack a comprehensive understanding of the cellular processes that control this pathway. […] Lipofectamine RNAiMAX Transfection Reagent ([…]; Invitrogen) was added in […] serum-free, antibiotic-free media to plate wells using a Thermo Scientific Matrix WellMate and Microplate Stacker. […] The plates were read on an EnVision plate reader (PerkinElmer). […]
Screen size: about 53,000 sequences; about 3,700 (7%) were called active. Only a selection was taken, and actives are over-represented in it overall.
measure: z-score

residue-string	test-result
CCAAACUUAAGCCUAUUCUTT against Mme	1.32 (inactive)
GGAGAGAGAUGCCCAAAUCTT against Zfp507	-0.362 (inactive)
GGAACUGUGUGUCUUCUCCTT against Kcns3	-1.78 (inactive)
GGCUGUGGUAGAAAAGCUGTT against Hspg2	-1.65 (inactive)
GGCAAAAUCCCAUACGAAATT against Itk	0.0298 (inactive)
GGUUAUGCCUUCAGUGAAGTT against Prep	-0.14 (inactive)

From: PubChem BioAssay AID1508600
